// data source = ChEMBL document CHEMBL3507680

I'd appreciate it if you could supply cytotoxicity at 70.5 h values for the items below.
# ASSAY COMMENT: Human HepG2 cell viability assay in 384 well format
# Type: toxicity, cell-based
# Design: dose 125 nL, time 70.5 hour; concentration not given beside the values
# STUDY CONDITIONS: HepG2 cells, read-out: Inhibition
Provide only the numeric value, understood in %.

Answer with reported cytotoxicity at 70.5 h of NS(=O)(=O)CCNC(=O)c1cc(Br)c2c(c1)OCCO2
-10.7

Answer with reported cytotoxicity at 70.5 h of CC(=O)N(Cc1ncc(C(C)C)o1)C1CCN(Cc2cc(C)no2)C1 (stereo not given)
-4.1

Answer with reported cytotoxicity at 70.5 h of Cc1cccc(N2CCN(C(=O)c3c(C)nn(C)c3C)CC2)c1C
-0.882

Answer with reported cytotoxicity at 70.5 h of O=C(c1cc2cc(F)ccc2[nH]1)N1CCC(Nc2cccnn2)CC1
24.4

Answer with reported cytotoxicity at 70.5 h of Cc1cc(-c2c[nH]nc2C2CCCCN2C(=O)c2ccccc2)on1 (stereo not given)
-9.53

Answer with reported cytotoxicity at 70.5 h of CSc1cccc(CN(C)C(=O)CN2CCN(c3ncccn3)CC2)c1
-8.23

Answer with reported cytotoxicity at 70.5 h of Cc1cc(CC(C)NC(=O)COc2ccc(F)cc2F)[nH]n1 (stereo not given)
-5.3

Answer with reported cytotoxicity at 70.5 h of CC(C)N(C)C(=O)c1ccc(CNc2ccncc2Cl)cc1
74.8

Answer with reported cytotoxicity at 70.5 h of COc1ccc(-n2cc(CNC(=O)c3ccc[nH]3)nn2)cc1
-2.18

Answer with reported cytotoxicity at 70.5 h of CCOCCn1nc(C)cc1C(=O)N1CC[C@](C)(O)[C@H](C)C1
-8.61

Answer with reported cytotoxicity at 70.5 h of O=C(NCCc1ccc(Cl)cc1)c1coc(CN2CCOCC2)c1
-5.77

Answer with reported cytotoxicity at 70.5 h of Cc1nn(C)cc1CN(Cc1ccccn1)Cc1ccccc1Cl
4.5

Answer with reported cytotoxicity at 70.5 h of CC(=O)N1CCC2(CC1)CC(NC(=O)N(C)C)c1cc(C)ccc12 (stereo not given)
-5.6

Answer with reported cytotoxicity at 70.5 h of COc1ccc(CN2CCC3(CC2)CC(CC(=O)NC(C)C)CO3)cc1 (stereo not given)
-14.4

Answer with reported cytotoxicity at 70.5 h of CNC(=O)C(C)(C)CNC(=O)Nc1ccc(C)cn1
-3.94

Answer with reported cytotoxicity at 70.5 h of CC(C(=O)N1CCOCC1)N1CCN(Cc2nccn2C)CC1 (stereo not given)
-2.07

Answer with reported cytotoxicity at 70.5 h of COc1ccc(Cn2c(CCc3c(C)n[nH]c3C)n[nH]c2=O)cc1
-3.26

Answer with reported cytotoxicity at 70.5 h of O=C(N1CCCO1)[C@@]12CCO[C@@H]1CCN(Cc1cccs1)C2
34.4

Answer with reported cytotoxicity at 70.5 h of CN(C)C(=O)N1CCC2(CC1)CCN(Cc1ccccn1)C2=O
25.9

Answer with reported cytotoxicity at 70.5 h of N#Cc1cccc(OCCN2CCCC2C(=O)NCC(F)(F)F)c1 (stereo not given)
-0.526

----------
# ASSAY COMMENT: Human HepG2 cell viability assay in 384 well format
# Assay type: toxicity, cell-based
# Design: dose 125 nL, time 70.5 hour; concentration not given beside the values
# STUDY CONDITIONS: HepG2 cells, read-out: Inhibition
MEASUREMENT KIND: cytotoxicity at 70.5 h (%)
Provide only the numeric value, understood in %.

Answer with reported cytotoxicity at 70.5 h of Cc1cc(NC(=O)NCC2CCN(C(C)C)C2)no1 (stereo not drawn)
-5.36

Answer with reported cytotoxicity at 70.5 h of COCc1nc2nc(O)c3c(n2n1)NC(=O)CC3c1ccc(SC)cc1 (stereo not drawn)
1.29

Answer with reported cytotoxicity at 70.5 h of Cc1nn(C2CCS(=O)(=O)C2)c(O)c1Cc1ccc(Br)cc1 (stereo not drawn)
19.3

Answer with reported cytotoxicity at 70.5 h of COc1cccc2c1OCC(CNC(=O)CCCN1CCOCC1)C2 (stereo not drawn)
-7.84

Answer with reported cytotoxicity at 70.5 h of CSc1ccccc1C(=O)N(C)C1CCCN(CCc2ccccc2)C1 (stereo not drawn)
-5.22

Answer with reported cytotoxicity at 70.5 h of NC(=O)CCn1cc(CNCCCc2csc(N)n2)c2ccccc21
-6.3

Answer with reported cytotoxicity at 70.5 h of Cc1c(CNC(=O)NCc2cccc(-n3cncn3)c2)cnn1C
-5.57

Answer with reported cytotoxicity at 70.5 h of CSC(C)C(=O)NCCCc1cc(N)n(-c2ccccc2)n1 (stereo not drawn)
1.73

----------
# ASSAY COMMENT: Human HepG2 cell viability assay in 384 well format
# Type: toxicity, cell-based
# Set-up: dose 125 nL, time 70.5 hour; concentration not given beside the values
# STUDY CONDITIONS: HepG2 cells, read-out: Inhibition
I'd appreciate it if you could supply cytotoxicity at 70.5 h values for the items below.
Provide only the numeric value, understood in %.

Answer with reported cytotoxicity at 70.5 h of O=C(Nc1cnn(Cc2ccc(Cl)cc2)c1)N[C@@H]1C=C[C@H](CO)C1
-7.72

Answer with reported cytotoxicity at 70.5 h of CC(C)N(C)S(=O)(=O)NCc1cccnc1N(C)C
-4.22

Answer with reported cytotoxicity at 70.5 h of CCN1CCN(C(C)CNC(=O)Nc2nnc(C)s2)CC1 (stereo not given)
-10.5

Answer with reported cytotoxicity at 70.5 h of Cc1nn(C)c(Cl)c1C1CCCN1C(=O)c1ccoc1C (stereo not given)
-4.13

Answer with reported cytotoxicity at 70.5 h of COC(=O)C(NC(=O)COC1CCCC1)c1cc(F)ccc1F (stereo not given)
-11.6

----------
# ASSAY COMMENT: Human HepG2 cell viability assay in 384 well format
# Type: toxicity, cell-based
# Parameters: dose 125 nL, time 70.5 hour; concentration not given beside the values
# STUDY CONDITIONS: HepG2 cells, read-out: Inhibition
I'd appreciate it if you could supply cytotoxicity at 70.5 h values for the items below.

Answer with reported cytotoxicity at 70.5 h of O=C(C1CC(=O)N(C2CCCC2)C1)N1CCN(CCn2cccc2)CC1 (stereo unspecified)
-5.71%

Answer with reported cytotoxicity at 70.5 h of COc1cc(CO)c(OC)c2c1OCO2
-8.39%

Answer with reported cytotoxicity at 70.5 h of CCCc1ccc(S(=O)(=O)NCCNC(=O)c2ccoc2)cc1
-6.96%

Answer with reported cytotoxicity at 70.5 h of Cc1cc(CN(C)C(=O)c2cc3c([nH]c2=O)CCCC3=O)no1
-14.6%

Answer with reported cytotoxicity at 70.5 h of O=C(NCCNc1ncccn1)Nc1cc(C(F)(F)F)c[nH]c1=O
-3.37%

Answer with reported cytotoxicity at 70.5 h of O=C(Cn1ccc2sccc2c1=O)NCCC1=CCCCC1
-8.78%

----------
# ASSAY COMMENT: Human HepG2 cell viability assay in 384 well format
# Type: toxicity, cell-based
# Set-up: dose 125 nL, time 70.5 hour; concentration not given beside the values
# STUDY CONDITIONS: HepG2 cells, read-out: Inhibition
MEASUREMENT KIND: cytotoxicity at 70.5 h (%)
Provide only the numeric value, understood in %.

Answer with reported cytotoxicity at 70.5 h of Cc1cccnc1CC(C)NC1Cc2ccccc2C1 (stereo unspecified)
5.92

Answer with reported cytotoxicity at 70.5 h of Cn1cnc(S(=O)(=O)N2CCO[C@H]3[C@@H](OCC4CC4)CC[C@@H]32)c1
11.1

Answer with reported cytotoxicity at 70.5 h of CN(C)C[C@@H]1CN(C2CCN(c3ccccc3Cl)CC2)C[C@@H]1CO
-14.4

Answer with reported cytotoxicity at 70.5 h of Cc1ccc(CC(=O)N2CCOC(c3ncc(CN(C)C)[nH]3)C2)s1 (stereo unspecified)
-6.18

Answer with reported cytotoxicity at 70.5 h of O=C(CC1NC(N2CCc3ccccc32)=NC1=O)Nc1ccc(Cl)cc1 (stereo unspecified)
-11.1

Answer with reported cytotoxicity at 70.5 h of c1cnc(N2CCC3(CC2)CC(NCC2CC2)c2ccccc23)nc1 (stereo unspecified)
11.4

----------
# ASSAY COMMENT: Human HepG2 cell viability assay in 384 well format
# Assay type: toxicity, cell-based
# Set-up: dose 125 nL, time 70.5 hour; concentration not given beside the values
# STUDY CONDITIONS: HepG2 cells, read-out: Inhibition
I'd appreciate it if you could supply cytotoxicity at 70.5 h values for the items below.
Provide only the numeric value, understood in %.

Answer with reported cytotoxicity at 70.5 h of CC(C)c1nnc(NCc2cc3n(n2)CCN(C2CCCCC2)C3)s1
-0.516

Answer with reported cytotoxicity at 70.5 h of O=C(CCn1c(=O)oc2ccccc21)NCC(O)c1ccc(F)c(F)c1 (stereo not drawn)
-4.98

Answer with reported cytotoxicity at 70.5 h of O=S(=O)(Cc1ccccc1F)NCCCN1CCCCC1
-1.2
